# Test system: Mouse macrophages from the cell line J774
# Test summary: Cytotoxicity assay
# Type: cell-based
# Experimental context: read-out: CC50, macrophages; 24 h, non-infected J774
Here the recorded CC50 is given for each entry.

{"Molecular string": "O=C(CN1C(=O)Cc2c([nH]c3ccc(Br)cc23)-c2ccc(Cl)cc21)N1CCOCC1", "Units text": "µM", "CC50": 10.2}
{"Molecular string": "CCN(CC)CCNC(=O)CN1C(=O)Cc2c([nH]c3ccc(Br)cc23)-c2ccc(Cl)cc21", "Units text": "µM", "CC50": 6}
{"Molecular string": "O=C(CN1C(=O)Cc2c([nH]c3ccc(Br)cc23)-c2ccc(Cl)cc21)NCCN1CCCCC1", "Units text": "µM", "CC50": 9}
{"Molecular string": "Cl.O=C(CN1C(=O)Cc2c([nH]c3ccc(Br)cc23)-c2ccc(Cl)cc21)N1CCNCC1", "Units text": "µM", "CC50": 8.1}
